Tested on: Acinetobacter baumannii ATCC17961
Assay: Antimicrobial susceptibility testing: 90% growth inhibitory concentration (IC90) determination in Iso-Sensitest broth, OD600 growth
Format: cell-based
Conditions: strain ATCC 17961, OD600 growth over 16 h, read-out: A. baumannii ATCC 17961 IC90
QUANTITY: IC90 (nM)
Answers are plain numbers, in nM.

Record excerpt, results attached:
COMPOUND: NC1CCC(NC(=O)N2CCN(C(=O)c3ccc(Nc4nccn5c(-c6c[nH]nc6C(F)(F)F)cnc45)cc3Cl)CC2)CC1 (stereo not shown) [Example 287]
IC90, nM: 230
//
COMPOUND: C[C@H](NC(=O)c1ccc(Nc2nccn3c(-c4c[nH]nc4C(F)(F)F)cnc23)cc1Cl)C(=O)N1CCNCC1 [Example 140]
IC90, nM: 3310
//
COMPOUND: C=CCn1cc(-c2cnc3c(Nc4ccc(C(=O)NCCOCC(C)(C)N)c(CC)c4)nccn23)c(C(F)(F)F)n1 [Example 45]
IC90, nM: 74
//
COMPOUND: Cc1cc(Nc2nccn3c(-c4c[nH]nc4C(F)(F)F)cnc23)ccc1C(=O)N1CCN(C(=O)N[C@H]2CNC[C@@H]2O)CC1 [Example 458]
IC90, nM: 551

Give IC90 for all compounds that follow.
1. NC1CC(NC(=O)N2CCN(C(=O)c3ccc(Nc4nccn5c(-c6c[nH]nc6C(F)(F)F)cnc45)cc3Cl)CC2)C1 (stereo not shown) [Example 265]
2. C#CCNCCCNC(=O)c1c(C)cc(Nc2nccn3c(-c4cn(CC#N)nc4C(F)(F)F)cnc23)cc1F [Example 76]
3. O=C(NC1CCN(C(=O)c2ccc(Nc3nccn4c(-c5c[nH]nc5C(F)(F)F)cnc34)cc2Cl)CC1)N[C@H]1CCNC1 [Example 144]

231
2090
335

---

System: Acinetobacter baumannii ATCC17961
Assay: Antimicrobial susceptibility testing: 90% growth inhibitory concentration (IC90) determination in Iso-Sensitest broth, OD600 growth
Assay type: cell-based
Conditions: Acinetobacter baumannii, ATCC17961, 16 h, strain ATCC 17961, OD600 growth over 16 h, read-out: A. baumannii ATCC 17961 IC90
Counter-ions that a name gives are not always drawn.
QUANTITY: IC90 (nM)
Answers are plain numbers, in nM.

Record excerpt, results attached:
MOLECULE: CCc1cc(Nc2nccn3c(-c4cn(CC(F)F)nc4C(F)(F)F)cnc23)ccc1C(=O)NCC(=O)NCC1CCNCC1
TESTED TARGET: Acinetobacter baumannii ATCC17961
QUANTITY: IC90
UNIT INFO: nM
REPORTED VALUE: 261
//
MOLECULE: CCc1cc(Nc2nccn3c(-c4c[nH]nc4C(F)(F)F)cnc23)ccc1C(=O)NCCCNC(=O)[C@H]1C[C@@H](N)C1
TESTED TARGET: Acinetobacter baumannii ATCC17961
QUANTITY: IC90
UNIT INFO: nM
REPORTED VALUE: 299
//
MOLECULE: O=C(c1ccc(Nc2nccn3c(-c4c[nH]nc4C(F)(F)F)cnc23)cc1Cl)N1CC2(C1)CN(C(=O)[C@@H]1CCCN1)C2
TESTED TARGET: Acinetobacter baumannii ATCC17961
QUANTITY: IC90
UNIT INFO: nM
REPORTED VALUE: 349
//
MOLECULE: O=C(c1ccc(N(c2nccn3c(-c4c[nH]nc4C(F)(F)F)cnc23)C(F)F)cc1Cl)N1CCNCC1
TESTED TARGET: Acinetobacter baumannii ATCC17961
QUANTITY: IC90
UNIT INFO: nM
REPORTED VALUE: 1050
//
MOLECULE: C#CC(C)n1cc(-c2cnc3c(Nc4ccc(C(=O)N5CCN(C(=O)[C@H]6C[C@H](O)CN6)CC5)c(CC)c4)nccn23)c(C(F)F)n1 (stereo in doubt)
TESTED TARGET: Acinetobacter baumannii ATCC17961
QUANTITY: IC90
UNIT INFO: nM
REPORTED VALUE: 1570

Next, consider the following molecule.
I'd like to know its IC90. The molecule in question is CCc1cc(Nc2nccn3c(-c4cn(CC(F)F)nc4C(F)(F)F)cnc23)ccc1C(=O)NCCNC(=O)[C@H]1CC[C@H](N)C1 [Example 492, formate] 200
